TARGET_DESC: USP7 (Homo sapiens, UniProt Q93009)
Sequence (Q93009 whole entry): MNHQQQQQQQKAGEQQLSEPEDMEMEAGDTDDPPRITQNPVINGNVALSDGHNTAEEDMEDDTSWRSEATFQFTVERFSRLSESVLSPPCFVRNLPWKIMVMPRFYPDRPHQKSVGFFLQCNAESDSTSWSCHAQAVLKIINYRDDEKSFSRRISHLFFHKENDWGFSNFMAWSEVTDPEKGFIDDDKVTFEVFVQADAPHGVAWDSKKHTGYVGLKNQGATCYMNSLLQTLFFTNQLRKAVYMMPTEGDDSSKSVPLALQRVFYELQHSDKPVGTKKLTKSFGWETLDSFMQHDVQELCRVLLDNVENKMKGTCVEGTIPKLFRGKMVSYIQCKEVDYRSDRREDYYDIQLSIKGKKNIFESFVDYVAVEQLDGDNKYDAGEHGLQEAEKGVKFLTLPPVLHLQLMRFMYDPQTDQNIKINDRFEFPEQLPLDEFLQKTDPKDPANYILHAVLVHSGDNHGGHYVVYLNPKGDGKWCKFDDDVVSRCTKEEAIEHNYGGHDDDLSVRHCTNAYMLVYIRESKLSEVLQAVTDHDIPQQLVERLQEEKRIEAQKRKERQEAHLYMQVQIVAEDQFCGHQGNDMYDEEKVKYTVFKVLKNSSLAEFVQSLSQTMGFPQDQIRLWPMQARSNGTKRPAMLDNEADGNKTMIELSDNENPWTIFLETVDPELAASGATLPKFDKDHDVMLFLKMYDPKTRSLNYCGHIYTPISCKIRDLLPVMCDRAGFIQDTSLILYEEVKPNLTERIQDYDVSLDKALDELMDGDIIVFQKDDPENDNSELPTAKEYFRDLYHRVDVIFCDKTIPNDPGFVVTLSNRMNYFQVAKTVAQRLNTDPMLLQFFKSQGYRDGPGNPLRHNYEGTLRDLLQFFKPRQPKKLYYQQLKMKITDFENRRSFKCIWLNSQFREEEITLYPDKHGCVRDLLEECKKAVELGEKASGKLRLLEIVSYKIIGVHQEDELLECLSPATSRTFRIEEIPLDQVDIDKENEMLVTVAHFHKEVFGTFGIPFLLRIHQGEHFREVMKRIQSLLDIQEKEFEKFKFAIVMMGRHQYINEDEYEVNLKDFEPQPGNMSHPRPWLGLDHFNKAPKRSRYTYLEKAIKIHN
EXPERIMENTAL_DETAILS: Ub-Rho cleavage assay
Assay type: biochemical
CONDITION_SUMMARY: Ub-Rho substrate, recombinant USP7; read-out: Ub (Rho) USP7.1 (IC50)
Please provide measured IC50 for the entries that follow.

IC50 for CCc1c(-c2ccc3[nH]ncc3c2)cnc(CN)c1-c1ccc(O)cc1 is 1 to 100 µM

IC50 for C[C@H](CC(=O)N1CCC(O)(Cn2cnc(N3CCN(CCN)CC3)cc2=O)CC1)c1ccccc1 is 1 to 100 µM

IC50 for CCc1c(-c2ccc(C(=O)NCCCNC(=O)CCOCCNC(=O)OC(C)(C)C)nc2)cnc(N)c1-c1ccc(O)cc1 is 1 to 100 µM

IC50 for CCc1c(-c2ccc3n[nH]cc3c2)cnc(CNC(=O)OC(C)C)c1-c1ccc(O)cc1 is 1 to 100 µM

IC50 for CCc1c(-c2ccc(C(=O)NCCCNC(=O)CCOCCOCCOCCOCCNC(=O)OC(C)(C)C)nc2)cnc(N)c1-c1ccc(O)cc1 is 1 to 100 µM

IC50 for C[C@H](CC(=O)C1CCC(O)(Cn2cnc3cc(C#CCN=[N+]=[N-])ccc3c2=O)CC1)c1ccccc1 (stereo partly shown) is 1 to 100 µM

IC50 for C[C@H](CC(=O)N1CCC(O)(Cn2cnc3cc(NCCN4CCN(CCCNC(=O)OC(C)(C)C)CC4)ccc3c2=O)CC1)c1ccccc1 is < 1 µM

IC50 for CN1CCCn2nc(C(=O)Nc3nc4ccc(S(=O)(=O)NC5CCNC5)cc4s3)cc2C1 (stereo not shown) is > 100 µM

IC50 for CC(=O)N1CCCn2nc(C(=O)Nc3nc4ccc(NS(=O)(=O)c5cccs5)cc4s3)cc2C1 is > 100 µM

IC50 for CN1CCC(C(=O)Nc2nc3ncc(NS(=O)(=O)c4cccs4)cc3s2)CC1 is > 100 µM

IC50 for O=C(Nc1nc2ccc(NS(=O)(=O)c3cccs3)cc2s1)c1ccn[nH]1 is > 100 µM

IC50 for CCc1c(-c2ccc(C(=O)NC)nc2)cnc(NCCN)c1-c1ccc(O)cc1 is 1 to 100 µM

IC50 for CCc1c(-c2ccc(C(=O)NC)cc2)cnc(N)c1-c1ccc(O)cc1 is 1 to 100 µM

IC50 for CN1CCCn2nc(C(=O)Nc3nc4ccc(NCc5c[nH]cn5)cc4s3)cc2C1 is > 100 µM

IC50 for CN1CCCn2nc(C(=O)Nc3nc4ccc(NS(=O)(=O)c5cccs5)cc4s3)nc2C1 is 1 to 100 µM

IC50 for C[C@H](CC(=O)N1CCC(O)(Cn2cnc3c(C#CCO)n(C)nc3c2=O)CC1)c1ccccc1 is < 1 µM

IC50 for CN1CCC(C(=O)Nc2nc3ccc(NS(=O)(=O)c4cnccn4)cc3s2)CC1 is > 100 µM

IC50 for CCc1c(-c2ccc(C(=O)NC)cc2)cnc(NC(=O)CN)c1-c1ccc(O)cc1 is > 100 µM

IC50 for CCc1c(-c2ccc3[nH]ncc3c2)cnc(C=O)c1-c1ccc(O)cc1 is 1 to 100 µM

IC50 for CCc1c(-c2ccc(C(=O)NCCCNC(=O)CCCCCCCNC(=O)OC(C)(C)C)nc2)cnc(N)c1-c1ccc(O)cc1 is > 100 µM

IC50 for CCc1c(-c2ccc3[nH]ncc3c2)cnc(CNC(=O)OC(C)(C)C)c1-c1ccc(O)cc1 is 1 to 100 µM

IC50 for CCc1c(-c2ccc(C(=O)NCCOCCOCCOCCN=[N+]=[N-])nc2)cnc(N)c1-c1ccc(O)cc1 is 1 to 100 µM

IC50 for O=C(O)c1ccnc(Nc2nc3ccc(NS(=O)(=O)c4cccs4)cc3s2)n1 is > 100 µM

IC50 for Cc1ccsc1S(=O)(=O)Nc1ccc2nc(NC(=O)C3CCN(C)CC3)sc2c1 is > 100 µM

IC50 for C#CCCN1CCCn2nc(C(=O)Nc3nc4ccc(NS(=O)(=O)c5cccs5)cc4s3)cc2C1 is > 100 µM

IC50 for CN1CCCn2nc(C(=O)Nc3nc4ccc(NS(=O)(=O)c5ccccn5)cc4s3)cc2C1 is > 100 µM

IC50 for Cn1nc(C(=O)Nc2nc3ccc(NS(=O)(=O)c4cccs4)cc3s2)cc1CN1CCC(CO)CC1 is > 100 µM

IC50 for Cc1cc(Cl)cc(-c2ccnc3cc(CN4C(=O)CCC4=O)sc23)c1OC1CCN(C(=O)CCNC(=O)OC(C)(C)C)CC1 is 1 to 100 µM

IC50 for CC(C)(C)OC(=O)N1CCC(C(=O)Nc2nc3ccc(N(S(=O)(=O)c4cccs4)S(=O)(=O)c4cccs4)cc3s2)CC1 is > 100 µM

IC50 for Cc1cc(Cl)cc(-c2ccnc3cc(CN4C(=O)CCC4=O)sc23)c1OC1CCN(CCCNC(=O)CCCCCCNC(=O)OC(C)(C)C)CC1 is < 1 µM

IC50 for CN1CCn2cnc(C(=O)Nc3nc4ccc(NS(=O)(=O)c5cccs5)cc4s3)c2C1 is > 100 µM

IC50 for CN1CCCn2nc(C(=O)Nc3nc4ccc(NS(=O)(=O)C5CCNC5)cc4s3)cc2C1 (stereo not shown) is > 100 µM

IC50 for NCCN(c1ccc2nc(NC(=O)c3ccco3)sc2c1)S(=O)(=O)c1cccs1 is > 100 µM

IC50 for O=C(Nc1nc2ccc(NS(=O)(=O)c3cccs3)cc2s1)N1CCOCC1 is > 100 µM
